target.desc: Sphingosine kinase 2 (Homo sapiens)
Sequence (whole entry): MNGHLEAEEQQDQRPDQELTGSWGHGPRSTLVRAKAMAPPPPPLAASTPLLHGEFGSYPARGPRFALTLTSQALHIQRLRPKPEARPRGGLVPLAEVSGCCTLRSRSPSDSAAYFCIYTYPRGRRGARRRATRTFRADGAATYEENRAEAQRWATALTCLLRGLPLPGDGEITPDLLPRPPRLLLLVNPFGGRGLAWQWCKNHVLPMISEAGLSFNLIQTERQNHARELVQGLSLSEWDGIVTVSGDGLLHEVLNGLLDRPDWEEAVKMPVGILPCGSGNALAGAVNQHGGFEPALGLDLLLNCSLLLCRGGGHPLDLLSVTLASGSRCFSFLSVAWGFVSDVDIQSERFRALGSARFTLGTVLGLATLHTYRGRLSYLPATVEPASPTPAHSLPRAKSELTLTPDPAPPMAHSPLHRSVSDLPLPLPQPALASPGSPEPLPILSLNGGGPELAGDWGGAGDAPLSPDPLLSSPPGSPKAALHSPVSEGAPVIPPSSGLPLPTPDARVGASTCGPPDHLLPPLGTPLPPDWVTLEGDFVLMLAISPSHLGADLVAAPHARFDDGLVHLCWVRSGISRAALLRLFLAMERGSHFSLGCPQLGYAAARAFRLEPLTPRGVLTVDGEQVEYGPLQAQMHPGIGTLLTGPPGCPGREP
measurement.context: at 1 µM
Description: GSK_PKIS: SPHK2 mean inhibition at 1 uM [Nanosyn]
Overview of recorded inhibition for various compounds
// note: answer is a bare numeric in %

Check out these entries, answers already filled in.
- COc1cc2ncn(-c3cc(OCc4ccccc4Cl)c(C(N)=O)s3)c2cc1OC: -4.96
- COC(=O)Nc1nc2cc(Oc3cccc(NC(=O)Nc4cc(C(F)(F)F)ccc4F)c3)ccc2[nH]1: 0.65
- CS(=O)(=O)CCN(CC#N)Cc1ccc(-c2ccc3ncnc(Nc4ccc(OCc5cccc(F)c5)c(Cl)c4)c3c2)o1: -0.75

Hello, please tell me recorded inhibition for this one: CCn1c(-c2nonc2N)nc2cncc(C(=O)N3CCNCC3)c21
0.77

Hello, please tell me recorded inhibition for this one: Fc1cccc(COc2ccc(Nc3ncnc4cc(-c5ccc[nH]5)sc34)cc2Cl)c1
-0.25

Hello, please tell me recorded inhibition for this one: COc1ccccc1Nc1ncc(-c2ccccc2)o1
-0.16

Hello, please tell me recorded inhibition for this one: CCCN1CCC=C(c2ccc(Nc3nc(Nc4ccccc4C(N)=O)c4cc[nH]c4n3)c(C)c2)C1
0.04

---

target.desc: Serine/threonine-protein kinase pim-2 (Homo sapiens);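 also: each value is a mean of the inhibition measurements against the kinase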
measurement.context: at 1 µM
Overview of recorded inhibition for various molecules
// note: answer is a bare numeric in %

Check out these entries, answers already filled in.
• COc1cc2ncn(-c3cc(OCc4ccccc4Cl)c(C(N)=O)s3)c2cc1OC = 4.79
• CC1=C(C(=O)Nc2ccc3[nH]ncc3c2)C(c2ccc(Cl)c(Cl)c2)CC(=O)N1 (stereo not given) = -1.37
• COc1ccc(-c2nn3ncccc3c2-c2ccnc(Nc3ccc(Cl)c(C(F)(F)F)c3)n2)cc1 = 0.14
• CC(C)=Cc1cccc2c1/C(=N/Nc1ccc(S(N)(=O)=O)cc1)C(=O)N2 = 0.68
• CS(=O)(=O)CCNCc1ccc(-c2ccc3ncnc(Nc4ccc(OCc5cccc(F)c5)c(C(F)(F)F)c4)c3c2)o1 = 0.66

Now look at this entry.
Hello, please tell me recorded inhibition for this one: COc1ccc(-c2coc3ncnc(N)c23)cc1
1.01

Where do these numbers come from? They come from ChEMBL document CHEMBL1961873.
